# Test system: LOX IMVI
# TEST_METHOD_NOTES: NCI tumour cell line growth inhibition, 48 h
Activity calls are given as the source filed them. Rule as the data show it: active = GI50 up to about 1.1 µM and inactive = higher.
ATTRIBUTE_MEASURED: GI50

CCCCCC/C=C1\CCC(CN2CCOCC2)C1=O (stereo unspecified)	10.2 µM (inactive)
CN(C)c1ccc(/C=C2\C[C@H]3[C@@H]4CCc5cc(O)ccc5[C@H]4CC[C@]3(C)C2=O)cc1	> 100 µM (inactive)
CC1=CC(=O)/C(=C/n2c(=S)[nH]c3ccc([N+](=O)[O-])cc32)C(=O)O1	> 100 µM (inactive)
O=C(O)CCc1nc(-c2ccccc2-n2cccc2)no1	> 100 µM (inactive)

Request: Returns the measured GI50 for the input compound. Input: CC1=C(O)C(=O)C2C(=O)C1C(C)C2c1ccc(Cl)cc1 (stereo unspecified)
Result: > 100 µM (inactive)

Request: I am curious: what GI50 value has been reported for `O=C(O/N=C1/CCC/C1=C\c1ccccc1)c1ccc(Cl)cc1` ?
Result: > 100 µM (inactive)

Request: Given the entry Cc1cccc(C(C)(C)C)c1NC(=O)CC1C(=O)Nc2ccccc2[S+]1[O-] (stereo unspecified) , report its measured GI50.
Result: 55.7 µM (inactive)
